Biological target: SOS1 nucleotide exchange of KRAS (catalytic domain of SOS1, residues 564-1049; wild-type KRAS) (Homo sapiens, UniProt Q07889)
Construct: tagless catalytic domain of SOS1 (residues 564-1049)
Assay: Mode of Action Assay: Inhibition of SOS1 Nucleotide Exchange Activity (TR-FRET)
Conditions: TR-FRET signal
Text: The purpose of this assay was to characterize the inhibitory activity of compounds on SOS1 nucleotide exchange of KRAS. Data was reported as IC50 values based on the TR-FRET signal. Note—the following protocol describes a procedure for monitoring the inhibition of SOS1 nucleotide exchange activity of wild-type KRAS in response to a compound of the invention. Other KRAS mutants and RAS isoforms maybe employed. […]
pIC50: −log10 of the molar value.
For each of the compounds below, state its pIC50.

Study these solved cases before continuing.
[[record]]
compound = "Cc1cn2nc(C(=O)N3CCOCC3)cc2c(N[C@H](C)c2cc(N)cc(C(F)(F)F)c2)n1"
recorded_measurement = "< 6.00"

[[record]]
compound = "Cc1cn2nc(C(=O)N3CC4CC3CN4C)cc2c(N[C@H](C)c2cc(N)cc(C(F)(F)F)c2)n1 (stereo partly shown)"
recorded_measurement = "> 6.00"

[[record]]
compound = "Cc1nc(N[C@H](C)c2cc(N)cc(C(F)(F)F)c2)c2cc(C(=O)N3CCN(C)CC3)n(C)c2n1"
recorded_measurement = "< 6.00"

[[record]]
compound = "C[C@@H](Nc1nccc2nc(C(=O)N3CC4(C3)CN(C3CC3)C4)cn12)c1cccc(C(F)F)c1F"
recorded_measurement = "> 6.00"

[[record]]
compound = "C[C@@H](Nc1nc(Cl)nc2c1cc(C1=CCNCC1)n2C)c1cc(N)cc(C(F)(F)F)c1"
recorded_measurement = "< 6.00"

[[record]]
compound = "C[C@@H](Nc1nc(Cl)cc2nc(C(=O)N3CCOCC3)cn12)c1cccc(C(F)(F)CO)c1"
recorded_measurement = "> 6.00"


Now look at this entry.
q: Given C[C@@H](Nc1nc(Cl)nn2cc(C(=O)N3CC4(CN(C)C4)C3)cc12)c1cccc(C(F)F)c1F , state its recorded pIC50.
a: > 6.00

====

For each of the compounds below, state its IC50.
Molecular target: UniProt:Q07889
Sequence (Q07889 564-1049 limits assumed): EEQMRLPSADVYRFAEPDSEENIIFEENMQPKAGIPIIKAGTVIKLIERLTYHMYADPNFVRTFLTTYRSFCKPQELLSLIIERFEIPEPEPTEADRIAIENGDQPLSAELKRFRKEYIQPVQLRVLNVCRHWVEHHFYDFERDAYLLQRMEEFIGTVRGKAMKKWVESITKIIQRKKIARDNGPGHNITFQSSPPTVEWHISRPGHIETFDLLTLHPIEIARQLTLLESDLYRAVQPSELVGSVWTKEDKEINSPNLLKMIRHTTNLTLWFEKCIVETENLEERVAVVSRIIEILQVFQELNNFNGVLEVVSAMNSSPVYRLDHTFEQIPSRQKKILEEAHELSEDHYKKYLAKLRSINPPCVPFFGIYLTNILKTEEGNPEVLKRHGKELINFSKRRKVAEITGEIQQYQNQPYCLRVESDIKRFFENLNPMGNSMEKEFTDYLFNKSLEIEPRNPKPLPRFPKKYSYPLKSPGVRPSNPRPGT

Study these solved cases before continuing.
[[record]]
compound = "Cc1nc(N[C@H](C)c2cc(N)cc(C(F)(F)F)c2)c2cc(C3=CCNCC3)sc2n1 [Example 26]"
measured_on = "UniProt:Q07889"
recorded_measurement = "1000 to 5000 nM"

[[record]]
compound = "C[C@@H](Nc1ncnn2cc(C3=CCNCC3)cc12)c1cc(N)cc(C(F)(F)F)c1 [Example 12]"
measured_on = "UniProt:Q07889"
recorded_measurement = "< 1000 nM"

[[record]]
compound = "Cc1cn2nc(C(=O)N3CCN(C)CC3)cc2c(N[C@H](C)c2cccc(C(F)(F)F)c2)n1 [Example 25]"
measured_on = "UniProt:Q07889"
recorded_measurement = "> 5000 nM"


q: Given C[C@@H](Nc1ncnc2cc(C3=CCNCC3)sc12)c1cc(N)cc(C(F)(F)F)c1 [Example 9] , state its recorded IC50.
a: < 1000 nM
